- Test system: carragenin-induced edema
- protocol.text: Carragenin-induced edema test (Winter)
- Type: in vivo, rat
- condition.parameters: OS, 10 mg/kg, 24 h
value.type: % Edema Inhibition

Cc1ccc(C(=O)c2ccc(CC(=O)NCC(=O)OCCn3cnc4c3c(=O)n(C)c(=O)n4C)n2C)cc1 [(E)]: 0,0%
Cc1cc(CC(=O)OCCn2cnc3c2c(=O)n(C)c(=O)n3C)n(C)c1C(=O)c1ccc(Cl)cc1 [(B)]: 20,0%
Cc1ccc(C(=O)c2ccc(CC(=O)OCCn3cnc4c3c(=O)n(C)c(=O)n4C)n2C)cc1 [(A)]: 0,0%
Cc1ccc(C(=O)c2ccc(CC(=O)O)n2C)cc1 [Na Tolmetin 2H2 O, reference compound]: 0,0%
Cn1c(=O)c2c(ncn2CCCOC(=O)Cc2ccc(-n3cccc3)cc2)n(C)c1=O [(D)]: 0,0%

Pending molecule:
Exercise: # returns recorded % Edema Inhibition (system: carragenin-induced edema) for Cc1ccc(C(=O)c2ccc(CC(=O)OC(Cn3cnc4c3c(=O)n(C)c(=O)n4C)Cn3cnc4c3c(=O)n(C)c(=O)n4C)n2C)cc1 [(F)]
Solution: 0,0%

---

- Tested on: carragenin-induced edema
- protocol.text: Carragenin-induced edema test (Winter)
- Assay type: in vivo, rat
- condition.parameters: I.P., 100 mg/kg, 6 h
value.type: % Edema Inhibition

Below: 4 compounds and their reported % Edema Inhibition.
Cn1c(=O)c2c(ncn2CCCOC(=O)Cc2ccc(-n3cccc3)cc2)n(C)c1=O: 65,4%
Cc1ccc(C(=O)c2ccc(CC(=O)NCC(=O)OCCn3cnc4c3c(=O)n(C)c(=O)n4C)n2C)cc1 [(E)]: 76,9%
Cc1ccc(C(=O)c2ccc(CC(=O)O)n2C)cc1 [Na Tolmetin 2H2 O, reference compound]: 55,1%
Cc1ccc(C(=O)c2ccc(CC(=O)OC(Cn3cnc4c3c(=O)n(C)c(=O)n4C)Cn3cnc4c3c(=O)n(C)c(=O)n4C)n2C)cc1: 65,6%

Pending compound:
Exercise: May I ask what % Edema Inhibition has been recorded for "Cc1ccc(C(=O)c2ccc(CC(=O)OCCn3cnc4c3c(=O)n(C)c(=O)n4C)n2C)cc1" ?
Solution: 56,1%

---

- protocol.text: in vivo
- condition.parameters: rat, po, rats, OS
value.type: LD50 (mg/kg)
Please reply with the bare figure in mg/kg and do not write the unit itself.

Below: 4 compounds and their reported LD50.
Cc1ccc(C(=O)c2ccc(CC(=O)NCC(=O)OCCn3cnc4c3c(=O)n(C)c(=O)n4C)n2C)cc1 [(E)]: 1340
Cc1cc(CC(=O)OCCn2cnc3c2c(=O)n(C)c(=O)n3C)n(C)c1C(=O)c1ccc(Cl)cc1 [(B)]: 150
Cc1ccc(C(=O)c2ccc(CC(=O)OCCn3cnc4c3c(=O)n(C)c(=O)n4C)n2C)cc1 [(A)]: 1150
Cc1ccc(C(=O)c2ccc(CC(=O)OC(Cn3cnc4c3c(=O)n(C)c(=O)n4C)Cn3cnc4c3c(=O)n(C)c(=O)n4C)n2C)cc1 [(F)]: 1500

Pending compound:
Exercise: May I ask what LD50 has been recorded for Cn1c(=O)c2c(ncn2CCCOC(=O)Cc2ccc(-n3cccc3)cc2)n(C)c1=O [(D)] ?
Solution: 1000

---

- protocol.text: in vivo
- condition.parameters: mouse, ip, mice, I.P.
Reported LD50 values for the following molecules.
Please reply with the bare figure in mg/kg and do not write the unit itself.

Cn1c(=O)c2c(ncn2CCCOC(=O)Cc2ccc(-n3cccc3)cc2)n(C)c1=O: 780
Cc1cc(CC(=O)OCCn2cnc3c2c(=O)n(C)c(=O)n3C)n(C)c1C(=O)c1ccc(Cl)cc1: 140

Exercise: May I ask what LD50 has been recorded for Cc1ccc(C(=O)c2ccc(CC(=O)NCC(=O)OCCn3cnc4c3c(=O)n(C)c(=O)n4C)n2C)cc1 [(E)] ?
Solution: 1100

Exercise: May I ask what LD50 has been recorded for "Cc1ccc(C(=O)c2ccc(CC(=O)OC(Cn3cnc4c3c(=O)n(C)c(=O)n4C)Cn3cnc4c3c(=O)n(C)c(=O)n4C)n2C)cc1" ?
Solution: 1240

Exercise: May I ask what LD50 has been recorded for "Cc1ccc(C(=O)c2ccc(CC(=O)OCCn3cnc4c3c(=O)n(C)c(=O)n4C)n2C)cc1" ?
Solution: 950

---

- Tested on: carragenin-induced edema
- protocol.text: Carragenin-induced edema test (Winter)
- Assay type: in vivo, rat
- condition.parameters: I.P., 100 mg/kg, 24 h
Reported % Edema Inhibition values for the following compounds.

Below: 4 compounds and their reported % Edema Inhibition.
Cn1c(=O)c2c(ncn2CCCOC(=O)Cc2ccc(-n3cccc3)cc2)n(C)c1=O: 9,6%
Cc1ccc(C(=O)c2ccc(CC(=O)NCC(=O)OCCn3cnc4c3c(=O)n(C)c(=O)n4C)n2C)cc1 [(E)]: 23,0%
Cc1ccc(C(=O)c2ccc(CC(=O)OCCn3cnc4c3c(=O)n(C)c(=O)n4C)n2C)cc1: 0,0%
Cc1ccc(C(=O)c2ccc(CC(=O)O)n2C)cc1 [Na Tolmetin 2H2 O, reference compound]: 0,0%

Exercise: May I ask what % Edema Inhibition has been recorded for "Cc1ccc(C(=O)c2ccc(CC(=O)OC(Cn3cnc4c3c(=O)n(C)c(=O)n4C)Cn3cnc4c3c(=O)n(C)c(=O)n4C)n2C)cc1" ?
Solution: 15,8%

---

- Test system: carragenin-induced edema
- protocol.text: Carragenin-induced edema test (Winter)
- Format: in vivo, rat
- condition.parameters: I.P., 50 mg/kg, 24 h
value.type: % Edema Inhibition

Below: 2 molecules and their reported % Edema Inhibition.
Cc1ccc(C(=O)c2ccc(CC(=O)O)n2C)cc1 [Na Tolmetin 2H2 O, reference compound]: 0,0%
Cn1c(=O)c2c(ncn2CCCOC(=O)Cc2ccc(-n3cccc3)cc2)n(C)c1=O [(D)]: 8,6%

Exercise: # returns recorded % Edema Inhibition (system: carragenin-induced edema) for Cc1ccc(C(=O)c2ccc(CC(=O)OCCn3cnc4c3c(=O)n(C)c(=O)n4C)n2C)cc1 [(A)]
Solution: 0,0%

Exercise: # returns recorded % Edema Inhibition (system: carragenin-induced edema) for Cc1ccc(C(=O)c2ccc(CC(=O)NCC(=O)OCCn3cnc4c3c(=O)n(C)c(=O)n4C)n2C)cc1 [(E)]
Solution: 12,0%

Exercise: # returns recorded % Edema Inhibition (system: carragenin-induced edema) for Cc1ccc(C(=O)c2ccc(CC(=O)OC(Cn3cnc4c3c(=O)n(C)c(=O)n4C)Cn3cnc4c3c(=O)n(C)c(=O)n4C)n2C)cc1 [(F)]
Solution: 0,0%

---

- System: carragenin-induced edema
- protocol.text: Carragenin-induced edema test (Winter)
- Type: in vivo, rat
- condition.parameters: OS, 10 mg/kg, 3 h
value.type: % Edema Inhibition

Below: 2 compounds and their reported % Edema Inhibition.
Cc1ccc(C(=O)c2ccc(CC(=O)OCCn3cnc4c3c(=O)n(C)c(=O)n4C)n2C)cc1 [(A)]: 34,6%
Cn1c(=O)c2c(ncn2CCCOC(=O)Cc2ccc(-n3cccc3)cc2)n(C)c1=O [(D)]: 39,0%

Exercise: May I ask what % Edema Inhibition has been recorded for Cc1ccc(C(=O)c2ccc(CC(=O)NCC(=O)OCCn3cnc4c3c(=O)n(C)c(=O)n4C)n2C)cc1 [(E)] ?
Solution: 34,0%

Exercise: May I ask what % Edema Inhibition has been recorded for Cc1ccc(C(=O)c2ccc(CC(=O)OC(Cn3cnc4c3c(=O)n(C)c(=O)n4C)Cn3cnc4c3c(=O)n(C)c(=O)n4C)n2C)cc1 [(F)] ?
Solution: 23,9%

Exercise: May I ask what % Edema Inhibition has been recorded for Cc1cc(CC(=O)OCCn2cnc3c2c(=O)n(C)c(=O)n3C)n(C)c1C(=O)c1ccc(Cl)cc1 [(B)] ?
Solution: 73,0%

Exercise: May I ask what % Edema Inhibition has been recorded for Cc1ccc(C(=O)c2ccc(CC(=O)O)n2C)cc1 [Na Tolmetin 2H2 O, reference compound] ?
Solution: 30,5%

---

- protocol.text: in vivo
- condition.parameters: mouse, po, mice, OS
value.type: LD50 (mg/kg)
Please reply with the bare figure in mg/kg and do not write the unit itself.

Cc1ccc(C(=O)c2ccc(CC(=O)NCC(=O)OCCn3cnc4c3c(=O)n(C)c(=O)n4C)n2C)cc1 [(E)]: 1400
Cn1c(=O)c2c(ncn2CCCOC(=O)Cc2ccc(-n3cccc3)cc2)n(C)c1=O: 1100
Cc1ccc(C(=O)c2ccc(CC(=O)OC(Cn3cnc4c3c(=O)n(C)c(=O)n4C)Cn3cnc4c3c(=O)n(C)c(=O)n4C)n2C)cc1: 1680
Cc1cc(CC(=O)OCCn2cnc3c2c(=O)n(C)c(=O)n3C)n(C)c1C(=O)c1ccc(Cl)cc1: 160

Pending compound:
Exercise: May I ask what LD50 has been recorded for "Cc1ccc(C(=O)c2ccc(CC(=O)OCCn3cnc4c3c(=O)n(C)c(=O)n4C)n2C)cc1" ?
Solution: 1270

---

- protocol.text: in vivo
- condition.parameters: rat, ip, rats, I.P.
Reported LD50 values for the following compounds.
Please reply with the bare figure in mg/kg and do not write the unit itself.

Below: 4 compounds and their reported LD50.
Cc1ccc(C(=O)c2ccc(CC(=O)OCCn3cnc4c3c(=O)n(C)c(=O)n4C)n2C)cc1 [(A)]: 800
Cc1ccc(C(=O)c2ccc(CC(=O)OC(Cn3cnc4c3c(=O)n(C)c(=O)n4C)Cn3cnc4c3c(=O)n(C)c(=O)n4C)n2C)cc1 [(F)]: 1050
Cc1cc(CC(=O)OCCn2cnc3c2c(=O)n(C)c(=O)n3C)n(C)c1C(=O)c1ccc(Cl)cc1 [(B)]: 100
Cn1c(=O)c2c(ncn2CCCOC(=O)Cc2ccc(-n3cccc3)cc2)n(C)c1=O [(D)]: 675

Pending compound:
Exercise: May I ask what LD50 has been recorded for Cc1ccc(C(=O)c2ccc(CC(=O)NCC(=O)OCCn3cnc4c3c(=O)n(C)c(=O)n4C)n2C)cc1 [(E)] ?
Solution: 987
